# experimental-system: Recombinant human cathepsin A (Homo sapiens (Human))
# Sequence (P10619 29-326): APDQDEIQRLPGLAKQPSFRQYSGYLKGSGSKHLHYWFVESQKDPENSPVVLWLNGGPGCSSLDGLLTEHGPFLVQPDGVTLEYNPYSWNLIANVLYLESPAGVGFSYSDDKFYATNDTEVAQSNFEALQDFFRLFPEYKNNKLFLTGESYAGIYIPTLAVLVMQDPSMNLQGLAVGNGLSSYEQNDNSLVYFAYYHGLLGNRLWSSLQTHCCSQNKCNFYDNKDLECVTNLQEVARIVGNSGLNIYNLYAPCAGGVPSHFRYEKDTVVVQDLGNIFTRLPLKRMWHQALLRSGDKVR
# Sequence (P10619 327-480): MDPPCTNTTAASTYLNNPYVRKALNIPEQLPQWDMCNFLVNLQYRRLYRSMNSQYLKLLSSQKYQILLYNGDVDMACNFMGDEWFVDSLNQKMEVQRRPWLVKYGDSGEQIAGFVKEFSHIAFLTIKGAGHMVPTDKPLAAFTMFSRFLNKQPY
# protocol-text: Cathepsin A inhibitory activity (Bodipy FL-labeled bradykinin substrate, microfluidic capillary electrophoresis)
# Type: biochemical
# condition: read-out: CATHA IC50
pIC50: −log10 of the molar value.
measurement-label: pIC50

The examples below pair each entry with its known result.
COc1ccc(-c2cccc(C#N)c2)cc1C(CC(=O)O)c1ncc(C)s1 (stereo not shown) [compound 94]; 5.03
Cc1nnc(C(CC(=O)O)c2cccc(-c3ccncc3)c2)o1 (stereo not shown) [compound 16]; 4.63

I: Cc1cnc(C(CC(=O)O)c2cccc(-c3cncc(C(=O)N4CCOCC4)c3)c2)s1 (stereo not shown) [compound 59]
II: COc1ccc(-c2cccc(F)c2Cl)cc1C(CC(=O)O)c1ncc(C)s1 (stereo not shown) [compound 82]
III: O=C(O)CC(c1cccc(-c2ccc3c(c2)OCCO3)c1)c1nccs1 (stereo not shown) [compound 19]
Request: // ranking: key=pIC50, reverse=True When ranking, write the labels in the order the request describes.
Response: III, II, I

a: COc1ccc(-c2ccc(C(F)(F)F)cc2)cc1C(CC(=O)O)c1ncc(C)s1 (stereo not shown) [compound 83]
b: COc1ccc(-c2cc(F)ccc2Cl)cc1C(CC(=O)O)c1ncc(C)s1 (stereo not shown) [compound 66]
c: O=C(O)CC(c1cccc(-c2ccncc2Cl)c1)c1nccs1 (stereo not shown) [compound 43]
d: COc1cc(F)c(-c2cccc(C(CC(=O)O)c3ncc(C)s3)c2)cc1F (stereo not shown) [compound 52]
e: O=C(O)CC(c1cccc(-c2ccc(OCC3CC3)cc2)c1)c1nccs1 (stereo not shown) [compound 30]
Request: // ranking: key=pIC50, reverse=True When ranking, write the labels in the order the request describes.
Response: d, b, e, a, c
(d: 6.33, b: 5.90, e: 5.64, a: 5.36, c: 4.71)

P: COc1ccc(-c2cccc(F)c2F)cc1C(CC(=O)O)c1ncc(C)s1 (stereo not shown) [compound 69]
Q: COc1ccc(-c2cccc(Cl)c2)cc1C(CC(=O)O)c1ncc(C)s1 (stereo not shown) [compound 81]
Request: In terms of reported pIC50, does P or Q have the smaller number? Kindly state the label of the option you pick.
Response: Q

Values from patent US9199947B2
